Target: CAT1 (cationic amino acid transporter 1, CAT1/SLC7A1) (Homo sapiens)
Construct: full-length human transporter stably transfected in HEK cells (HEK-CAT1); net uptake against HEK-VC vector control cells
Experiment: cell-based
Set-up: species or system HEK-CAT1 (HEK293 stably transfected); Inhibition of net CAT1-mediated [3H]-L-homoarginine (1 uM) uptake, 2.5 min, scintillation counting, vector control subtracted
Details: HEK293; L-homoarginine 1 uM as substrate; read-out: % Inhibition of L-homoarginine uptake at 20 µM
Procedure: Uptake and inhibition assays using HEK-CAT1 and HEK-VC cells and L-arginine, L-homoarginine, and ADMA as substrates were performed using the protocol described (Strobel et al. [2012]; Chafai et al. [2017]). […] The net uptake was determined by subtracting the total amount taken up by control cells from the amount taken up by CAT1-expressing cells, which was expressed as a percentage of the amount taken up by the control. […]
READOUT_TYPE: inhibition at 20 µM (%)
Give the number; % is assumed, so skip it.

Task item: Given "CCCN(CCC)S(=O)(=O)c1ccc(C(=O)O)cc1" , respond with its inhibition at 20 µM.
Reply: -2.9

Task item: Given "CCOC(=O)[C@H](CCc1ccccc1)N[C@@H](C)C(=O)N1CCC[C@H]1C(=O)O" , respond with its inhibition at 20 µM.
Reply: 12.7

Task item: Given "Cc1ccc(NC(=O)c2ccc(CN3CCN(C)CC3)cc2)cc1Nc1nccc(-c2cccnc2)n1" , respond with its inhibition at 20 µM.
Reply: -24.9

Task item: Given "CN(C)CCCN1c2ccccc2CCc2ccccc21" , respond with its inhibition at 20 µM.
Reply: -3.1

Task item: Given "CN(C)CCC=C1c2ccccc2CCc2ccccc21" , respond with its inhibition at 20 µM.
Reply: 0.6

###

Consider the following compounds; for each one, report its inhibition at 20 µM.
Molecular target: CAT1 (cationic amino acid transporter 1, CAT1/SLC7A1) (Homo sapiens, UniProt P30825)
Construct: full-length human transporter stably transfected in HEK cells (HEK-CAT1); net uptake against HEK-VC vector control cells
Sequence (P30825 whole entry): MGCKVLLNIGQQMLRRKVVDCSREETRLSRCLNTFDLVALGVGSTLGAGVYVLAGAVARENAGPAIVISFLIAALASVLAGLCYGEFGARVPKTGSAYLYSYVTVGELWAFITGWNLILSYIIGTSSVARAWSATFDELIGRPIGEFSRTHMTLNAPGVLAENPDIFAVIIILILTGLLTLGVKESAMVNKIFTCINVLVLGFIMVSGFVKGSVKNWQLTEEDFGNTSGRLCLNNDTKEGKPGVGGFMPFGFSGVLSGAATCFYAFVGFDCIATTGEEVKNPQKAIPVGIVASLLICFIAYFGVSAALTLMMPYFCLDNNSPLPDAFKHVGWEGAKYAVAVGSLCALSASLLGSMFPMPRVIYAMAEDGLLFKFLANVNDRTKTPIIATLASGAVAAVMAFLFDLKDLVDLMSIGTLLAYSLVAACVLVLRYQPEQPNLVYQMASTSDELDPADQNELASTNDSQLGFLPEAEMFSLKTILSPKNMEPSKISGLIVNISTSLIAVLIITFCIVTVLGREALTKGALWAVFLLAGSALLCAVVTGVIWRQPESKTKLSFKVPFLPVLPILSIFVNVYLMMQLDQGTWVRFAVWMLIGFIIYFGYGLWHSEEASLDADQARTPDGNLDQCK
Test: cell-based
Parameters: species or system HEK-CAT1 (HEK293 stably transfected); Inhibition of net CAT1-mediated [3H]-ADMA (1 uM) uptake, 2.5 min, scintillation counting, vector control subtracted
Details: HEK293; ADMA 1 uM as substrate; read-out: % Inhibition of ADMA uptake at 20 µM
Give the number; % is assumed, so skip it.

Task item: Given N=C(N)NC(=O)c1nc(Cl)c(N)nc1N [Amiloride] , respond with its inhibition at 20 µM.
Reply: 1.5

Task item: Given Cc1nnc2n1-c1ccc(Cl)cc1C(c1ccccc1)=NC2 [Alprazolam] , respond with its inhibition at 20 µM.
Reply: 5.8

Task item: Given COc1cc(Cc2cnc(N)nc2N)cc(OC)c1OC [Trimethoprim] , respond with its inhibition at 20 µM.
Reply: -13.7

Task item: Given CCOC(=O)[C@H](CCc1ccccc1)N[C@H]1CCc2ccccc2N(CC(=O)O)C1=O [Benazepril] , respond with its inhibition at 20 µM.
Reply: 28.7

Task item: Given COc1ccc(CCN(C)CCCC(C#N)(c2ccc(OC)c(OC)c2)C(C)C)cc1OC (centres unmarked) [verapamil] , respond with its inhibition at 20 µM.
Reply: 24.1

###

Molecular target: CAT1 (cationic amino acid transporter 1, CAT1/SLC7A1) (Homo sapiens, UniProt P30825)
Construct: full-length human transporter stably transfected in HEK cells (HEK-CAT1); net uptake against HEK-VC vector control cells
Assay: cell-based
Set-up: species or system HEK-CAT1 (HEK293 stably transfected); Inhibition of net CAT1-mediated [3H]-ADMA (1 uM) uptake, 2.5 min, scintillation counting, vector control subtracted
Conditions: HEK293; ADMA 1 uM as substrate; read-out: % Inhibition of ADMA uptake at 200 µM
READOUT_TYPE: inhibition at 200 µM (%)
Give the number; % is assumed, so skip it.

Task item: Given COC(=O)[C@H](c1ccccc1Cl)N1CCc2sccc2C1 [Clopidogrel] , respond with its inhibition at 200 µM.
Reply: -8.9

Task item: Given CN(Cc1cnc2nc(N)nc(N)c2n1)c1ccc(C(=O)N[C@@H](CCC(=O)O)C(=O)O)cc1 [Methotrexate] , respond with its inhibition at 200 µM.
Reply: 9.9

Task item: Given COc1ccc2c(c1)[C@]13CCCC[C@@H]1[C@H](C2)N(C)CC3 [Dextromethorphan] , respond with its inhibition at 200 µM.
Reply: 6.2

Task item: Given CCOC(=O)C1=C(COCCN)NC(C)=C(C(=O)OC)C1c1ccccc1Cl (stereo not shown) [Amlodipine] , respond with its inhibition at 200 µM.
Reply: 4

Task item: Given C[C@H]1O[C@@H](O[C@H]2[C@@H](O)C[C@H](O[C@H]3[C@@H](O)C[C@H](O[C@H]4CC[C@@]5(C)[C@H](CC[C@@H]6[C@@H]5CC[C@]5(C)[C@@H](C7=CC(=O)OC7)CC[C@]65O)C4)O[C@@H]3C)O[C@@H]2C)C[C@H](O)[C@@H]1O [Digitoxin] , respond with its inhibition at 200 µM.
Reply: 21.5

Task item: Given C[C@@H](O)[C@H]1C(=O)N2C(C(=O)O)=C(S[C@@H]3CN[C@H](C(=O)Nc4cccc(C(=O)O)c4)C3)[C@H](C)[C@H]12 [Ertapenem] , respond with its inhibition at 200 µM.
Reply: 9.9

Task item: Given NC(=O)N1c2ccccc2C=Cc2ccccc21 [Carbamazepine] , respond with its inhibition at 200 µM.
Reply: 12.8

###

Target: CAT1 (cationic amino acid transporter 1, CAT1/SLC7A1) (Homo sapiens)
Construct: full-length human transporter stably transfected in HEK cells (HEK-CAT1); net uptake against HEK-VC vector control cells
Assay: cell-based
Design: species or system HEK-CAT1 (HEK293 stably transfected); Inhibition of net CAT1-mediated [3H]-L-arginine (100 uM) uptake, 5 min, scintillation counting, vector control subtracted
Conditions: HEK293; L-arginine 100 uM as substrate; read-out: % Inhibition of L-arginine uptake at 20 µM
READOUT_TYPE: inhibition at 20 µM (%)
Give the number; % is assumed, so skip it.

Task item: Given Nc1nc(NC2CC2)c2ncn([C@H]3C=C[C@@H](CO)C3)c2n1 [Abacavir] , respond with its inhibition at 20 µM.
Reply: -0.9

Task item: Given O=C(O)c1cc(-c2ccc(F)cc2F)ccc1O [Diflunisal] , respond with its inhibition at 20 µM.
Reply: 26.6

Task item: Given CCCCc1nc(Cl)c(CO)n1Cc1ccc(-c2ccccc2-c2nnn[nH]2)cc1 [Losartan] , respond with its inhibition at 20 µM.
Reply: 13.5

Task item: Given CNCCCN1c2ccccc2CCc2ccccc21 [Desipramine] , respond with its inhibition at 20 µM.
Reply: -10.8

Task item: Given CCOC(=O)[C@H](CCc1ccccc1)N[C@H]1CCc2ccccc2N(CC(=O)O)C1=O [Benazepril] , respond with its inhibition at 20 µM.
Reply: 1.1

Task item: Given C[C@]12C=CC(=O)C=C1CC[C@@H]1[C@@H]2C(=O)C[C@@]2(C)[C@H]1CC[C@]2(O)C(=O)CO [Prednisone] , respond with its inhibition at 20 µM.
Reply: 13.9

Task item: Given OCCN1CCN(CCCN2c3ccccc3C=Cc3ccccc32)CC1 [Opipramol] , respond with its inhibition at 20 µM.
Reply: 22.3

Task item: Given Cc1ncc([N+](=O)[O-])n1CCO [Metronidazole] , respond with its inhibition at 20 µM.
Reply: 7.7

Task item: Given CNCC[C@H](Oc1cccc2ccccc12)c1cccs1 [Duloxetine] , respond with its inhibition at 20 µM.
Reply: 6.1

Task item: Given CC(=O)N[C@@H](CS)C(=O)O [Acetylcysteine] , respond with its inhibition at 20 µM.
Reply: -6.6

Task item: Given CC(=O)Nc1ccc(O)cc1 [Acetaminophen] , respond with its inhibition at 20 µM.
Reply: 6.6

Task item: Given O=C(O)Cc1ccccc1Nc1c(Cl)cccc1Cl [Diclofenac] , respond with its inhibition at 20 µM.
Reply: -15.9

Task item: Given CC(=O)Nc1nnc(S(N)(=O)=O)s1 [Acetazolamide] , respond with its inhibition at 20 µM.
Reply: -12.8

Task item: Given C#C[C@]1(O)CC[C@H]2[C@@H]3CCc4cc(O)ccc4[C@H]3CC[C@@]21C [Ethinylestradiol] , respond with its inhibition at 20 µM.
Reply: 7.4

Task item: Given CC(C)NCC(O)COc1ccc(COCCOC(C)C)cc1 (stereo not drawn) [Bisoprolol] , respond with its inhibition at 20 µM.
Reply: -13.1

Task item: Given Nc1ccn([C@@H]2CS[C@H](CO)O2)c(=O)n1 [Lamivudine] , respond with its inhibition at 20 µM.
Reply: 27.4

Task item: Given NS(=O)(=O)c1cc2c(cc1Cl)NCNS2(=O)=O [Hydrochlorothiazide] , respond with its inhibition at 20 µM.
Reply: 6

Task item: Given Oc1ncnc2[nH]ncc12 [Allopurinol] , respond with its inhibition at 20 µM.
Reply: 5

Task item: Given CN/C(=N\CCSCc1nc[nH]c1C)NC#N [Cimetidine] , respond with its inhibition at 20 µM.
Reply: 0.2

Task item: Given C[C@]12CC[C@@H]3c4ccc(O)cc4CC[C@H]3[C@@H]1CC[C@@H]2O [Beta estradiol] , respond with its inhibition at 20 µM.
Reply: 0.3

Task item: Given CC1(C)S[C@@H]2[C@H](NC(=O)[C@H](N)c3ccc(O)cc3)C(=O)N2[C@H]1C(=O)O [Amoxicillin] , respond with its inhibition at 20 µM.
Reply: 14.9
